Tested on: MS2 coat protein
Experimental protocol: apparent Kd, MS2 coat protein; higher = weaker binding; RNA-MaP array; FMN 200 µM where present
Experimental context: designed as: ON switch for flavin mononucleotide; no ligand
Response key: Criterion met means apparent Kd >= 200 nM; Criterion not met means apparent Kd < 200 nM.

* UUUUAUGUCAAAGGAUAUAUAAAUAAAUUUAUAACAUGAGGAUCACCCAUGUACUUUAGUAUGAGGUAGAAGGUUGAUAAGAGA | Criterion not met
* UUGGACGUCGUAGGAUAUGUAGGAUAGUCCUACAUGAGGAUCACCCAUGUUGACAUGGAAGAAGGACAGAAGGACGAUGUCCAU | Criterion met
* AAUUAAUUAAUACAUGAGGAUCACCCAUGUAAUUAUUAGAUCAAGGAUAUCAGCUCGAUUAGAGCUGAGAAGGUGAUCACAUGU | Criterion met
* UGGAUCAUGGGAGGAUAUGGGAAGAUACAUGAGGAUCACCCAUGUUUAAGAAUGCCGAGAGGCAACUAGAAGGCCCAUGAUCCU | Criterion met
* GGGUACAUCGGAGGAUAUCAUGUAAAUACAUGAGGAUCACCCAUGUCGAUGGAGACAUCGGAGAUUGAGAAGGCCGAAGUACCG | Criterion met
* UGCGUACAAGCAAACAUGAGGAUCACCCAUGUGGUCUUAUGCGAGGAUAUCGGGAAGGAGGAUUCCGAGAAGGUGCGGUGAGCC | Criterion not met

###

System: MS2 coat protein
Experimental protocol: apparent Kd, MS2 coat protein; higher = weaker binding; RNA-MaP array; tryptophan 2.4 mM where present
Experimental context: ligand present: tryptophan; designed as: ON switch for tryptophan
Experimental endpoint: apparent Kd (nM)

• UUCUUUGACGAUCUGGGUUUACCAGAUCGACGAGGACCGGUACGGCCGCCACUCGUGUUUUCUUUACAUGAGGAUCACCCAUGUU = 15.6
• GAUUAAACAUGAGGAUCACCCAUGUAUAUACGAGGACCGGUACGGCCGCCACUCGUAAACGAGUAUCCUCGAAUAAACAUGAUAA = 42.7
• UAAACUACACAUGAGGAUCACCCAUGUGGCCGAGGACCGGUACGGCCGCCACUCGUGUGUUAAUAAAAGAACUGCAAGAUUCUUU = 92.6
• ACAUGAGGAUCACCCAUGUGUGUAAAUCCUCGAGGACCGGUACGGCCGCCACUCGAACGAGUGUAAGUUGAAUGUAACAUUCAAC = 33.7
• AUGCAGAGCACGGCCGCCACUCCAUGUAUACAUGAGGAUCACCCAUGUAAUUUGUAUUUUUUAUAGAGGACCGGGUGAAAUGCAA = 18.2
• AACAUACAAUAAUAGGUGGAUAUAAGGCGGCGAGGACCGGUACGGCCGCCACUCGCGUACAUGAGGAUCACCCAUGUCUGAAACU = 28.1
• UUUGACGGCGAUCUGGGUUUACCAGAUCGGCGAGGACCGGUACGGCCGCCACUCGUGUUUCUUUGACAUGAGGAUCACCCAUGUA = 18.4

###

Tested on: MS2 coat protein
Experimental protocol: apparent Kd, MS2 coat protein; higher = weaker binding; RNA-MaP array; FMN 200 µM where present
Experimental context: designed as: OFF switch for flavin mononucleotide; no ligand
Response key: 1.0 means apparent Kd >= 20 nM; 0.0 means apparent Kd < 20 nM.

- GUGUAGUCAGGAUAUACAUAGGAAGAGAAGAGAAGAGAAGUACAUGAGGAUCACCCAUGUAGAAGGGACAGUGU: 1.0
- CUGAUGUUAGGAUAUCAGGCGCCCGCCACUAGCAGGGCGCAUGAGAAGGGACAUGAGGAUCACCCAUGUAGUAA: 1.0
- ACAUGAGGAUCACCCAUGUUUUCAUGGAUUAUUAUUCUUUGAUAGGAUAUGUUAGUUAAGUAUUUACAGAAGGAUCAUUACCAA: 1.0
- UCGAACGGAAACAAAGUAAAUAGACAUGAGGAUCACCCAUGUAAGGAUAUGCCUACUAAAAGUAGGCAGAAGGUACGCGUUCGA: 0.0
- CGGGCUGCUGUGAGGAUAUGCCUGUGGGUGCGUGGGUAGAAGGCACAUGAGGAUCACCCAUGUCCUGCGGCUCG: 1.0
- UCUGUUCAAGGAUAUGCGUAAUGUGUUACGGCACGAGGUCUACAUGAGGAUCACCCAUGUAGAAGGUGAUCAGA: 1.0
- AAUUUACAGCGAGGAUAUACAUGAGGAUCACCCAUGUAAUCAUAUGAUAUUUUUUUUGUAUGAGUGUAGAAGGCGCAAAUAAAA: 0.0
- ACGUAUCAUGUAGGAUAUGACCCAGGAAACUGGUCAGAAGGACAUGAGGAUCACCCAUGUAGAGUAUGUUAGGAUGACGUAUGC: 1.0
- CGACACAUGAGGGUCUCCCAUGACAUGAGGAUCACCCAUGUGCAGGAUAUACGUGUGAUGGUAUAGUAGAAGGGCACUCUAUGU: 1.0
